target: c-kit WT (Homo sapiens (Human)); experiment: Proliferation assay (CellTiter-Blue) on BaF3 Kit WT cell line; settings: BaF3 Kit WT cell line (murine Ba/F3 expressing Human Kit WT, with murine SCF), 48 hours
Sequence (P10721 26-976): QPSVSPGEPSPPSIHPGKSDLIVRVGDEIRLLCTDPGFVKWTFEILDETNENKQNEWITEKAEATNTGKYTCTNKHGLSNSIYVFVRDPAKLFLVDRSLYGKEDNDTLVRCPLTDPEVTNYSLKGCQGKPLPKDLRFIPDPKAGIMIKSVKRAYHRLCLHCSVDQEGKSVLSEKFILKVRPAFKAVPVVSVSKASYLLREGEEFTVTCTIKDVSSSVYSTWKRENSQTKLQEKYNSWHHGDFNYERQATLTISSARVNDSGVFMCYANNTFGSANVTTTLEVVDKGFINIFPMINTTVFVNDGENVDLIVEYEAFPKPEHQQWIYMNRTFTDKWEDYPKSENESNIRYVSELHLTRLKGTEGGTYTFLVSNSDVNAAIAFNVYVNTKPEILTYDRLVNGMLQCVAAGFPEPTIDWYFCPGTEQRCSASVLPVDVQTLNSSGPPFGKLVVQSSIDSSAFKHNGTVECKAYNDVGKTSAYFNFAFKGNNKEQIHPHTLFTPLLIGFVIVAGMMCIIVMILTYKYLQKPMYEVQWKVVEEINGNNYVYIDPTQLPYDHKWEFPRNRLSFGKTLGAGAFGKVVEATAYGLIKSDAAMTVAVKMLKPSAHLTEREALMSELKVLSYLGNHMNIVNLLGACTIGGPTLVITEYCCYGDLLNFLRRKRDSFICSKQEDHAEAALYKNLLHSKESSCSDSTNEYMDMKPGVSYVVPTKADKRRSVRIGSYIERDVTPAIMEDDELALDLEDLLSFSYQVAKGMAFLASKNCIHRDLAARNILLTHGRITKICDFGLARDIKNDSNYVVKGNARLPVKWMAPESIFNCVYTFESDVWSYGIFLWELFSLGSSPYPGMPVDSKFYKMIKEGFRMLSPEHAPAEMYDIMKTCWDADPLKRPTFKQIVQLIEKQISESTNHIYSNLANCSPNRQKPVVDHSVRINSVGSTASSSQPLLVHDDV
As shown below, each of these molecules has a reported IC50 value.
quantity name: IC50

* Cc1cc2nc(-c3ccc(Cl)cc3)[nH]c2cc1Nc1nc(-c2cccnc2)cs1 | 1000 to 10000 nM
* Cc1cc2c(cc1Nc1nc(-c3cccnc3)cs1)nc(-c1ccc(C(F)F)cc1)n2C | ≤ 1000 nM
* Cc1cc2c(cc1Nc1nc(-c3ccncc3)cs1)nc(-c1cccc(F)c1)n2C | ≤ 1000 nM
* CCn1c(-c2cccc(C(F)(F)F)c2)nc2cc(Nc3nc(-c4ccncc4)cs3)c(C)cc21 | ≤ 1000 nM
* Cc1cc2c(cc1Nc1nc(-c3ccnc(Cl)c3)cs1)nc(-c1cccc(C(F)F)c1)n2C | ≤ 1000 nM
* Cc1cc2[nH]c(-c3cccc(C(C)C)c3)nc2cc1Nc1nc(-c2ccc(C#N)cc2)cs1 | ≤ 1000 nM
* Cc1cc2nc(-c3cc(CN4CCCCC4)cc(C(F)(F)F)c3)[nH]c2cc1Nc1nccc(-c2cccnc2)n1 | ≤ 1000 nM
* Cc1cc2nc(-c3ccc(CN4CCN(C)CC4)cc3)[nH]c2cc1Nc1nc(-c2ccncc2)cs1 | 1000 to 10000 nM
* Cc1cc2nc(-c3ccc(C(F)(F)F)cc3)[nH]c2cc1Nc1nc(-c2cccnc2)cs1 | 1000 to 10000 nM
* Cc1cccc(-c2nc3cc(Nc4nc(-c5ccncc5)cs4)c(C)cc3n2C(C)C)c1 | ≤ 1000 nM
* Cc1cc2c(cc1Nc1nc(-c3ccc(C#N)cc3)cs1)nc(-c1cccc(C(F)F)c1)n2C | ≤ 1000 nM
* Cc1cc2nc(-c3cccc(C(F)F)c3)[nH]c2cc1Nc1nc(-c2ccc(C#N)cc2)cs1 | ≤ 1000 nM
* Cc1cc2nc(-c3cccc(C(F)F)c3)[nH]c2cc1Nc1nc(-c2cccnc2)cs1 | ≤ 1000 nM
* COc1cccc(-c2nc3cc(Nc4nc(-c5ccncc5)cs4)c(C)cc3n2C)c1 | ≤ 1000 nM
* Cc1cc2c(cc1Nc1nc(-c3ccc(C#N)cc3)cs1)nc(-c1cc(F)cc(C(F)(F)F)c1)n2C | ≤ 1000 nM
* Cc1cc2[nH]c(-c3ccc(C(F)F)cc3)nc2cc1Nc1nc(-c2cccnc2)cs1 | ≤ 1000 nM
* Cc1cc2nc(-c3cccc(C(F)(F)F)c3)[nH]c2cc1Nc1nc(-c2ccc(C#N)cc2)cs1 | ≤ 1000 nM
* Cc1cc2nc(-c3cccc(C(F)F)c3)[nH]c2cc1Nc1nc(-c2ccc(C(N)=O)cc2)cs1 | ≤ 1000 nM
* Cc1cc2nc(-c3cccc(S(C)(=O)=O)c3)[nH]c2cc1Nc1nccc(-c2cccnc2)n1 | 1000 to 10000 nM
* Cc1cc2c(cc1Nc1nc(-c3cccnc3)cs1)nc(-c1ccc(CN3CCN(C)CC3)cc1)n2C | 1000 to 10000 nM
* Cc1cc2nc(-c3cccc(CN4CCN(C)CC4)c3)[nH]c2cc1Nc1nccc(-c2cccnc2)n1 | 1000 to 10000 nM
* Cc1cc2nc(-c3cc(CN4CCN(C)CC4)cc(C(F)(F)F)c3)[nH]c2cc1Nc1nccc(-c2cccnc2)n1 | 1000 to 10000 nM
* Cc1cc2nc(-c3cccc(C(F)F)c3)[nH]c2cc1Nc1nccc(-c2cccnc2)n1 | ≤ 1000 nM
* Cc1cc2c(cc1Nc1nc(-c3ccncc3)cs1)nc(-c1cccc(C(F)F)c1)n2C(C)C | ≤ 1000 nM
* Cc1cc2c(cc1Nc1nc(-c3ccc(C#N)cc3)cs1)nc(-c1cccc(C(C)C)c1)n2C | ≤ 1000 nM
* Cc1cc2c(cc1Nc1nc(-c3cccnc3)cs1)nc(-c1cccc(OC(F)(F)F)c1)n2C | ≤ 1000 nM
* Cc1cc2nc(-c3ccc(C(F)(F)F)cc3)[nH]c2cc1Nc1nc(-c2ccc(C(N)=O)cc2)cs1 | ≤ 1000 nM
* Cc1cc2nc(Cc3ccc(C(F)(F)F)cc3)[nH]c2cc1Nc1ncc(-c2ccncc2)o1 | 1000 to 10000 nM
* Cc1cc2nc(-c3cccc(C(F)(F)F)c3)[nH]c2cc1Nc1nccc(-c2cccnc2)n1 | ≤ 1000 nM
* Cc1ccc(-c2nc3cc(C)c(Nc4nc(-c5cccnc5)cs4)cc3[nH]2)cc1 | 1000 to 10000 nM
* Cc1cc2nc(-c3cccc(C(F)F)c3)[nH]c2cc1Nc1nc(-c2ccncc2)cs1 | ≤ 1000 nM
